experiment: Non-clinical toxicology, repeated dose toxicity study in rat; format: in vivo; settings: rat, plasma; female rats, repeated dose toxicity study; read-out: AUC (systemic exposure in toxicity study)

>  <compound>
Cl.O=S(=O)(c1ccccc1)c1ccc2c(c1)OCCN2C1CCNCC1F (single isomer, unassigned; peak iii)

>  <AUC>
38100 ng·h/mL

$$$$
>  <compound>
O=S(=O)(c1ccccc1)c1ccc2c(c1)OCCN2C1CCNCC1 [Comparator Example, reference compound]

>  <AUC>
4050 ng·h/mL

$$$$

----------
assay: Non-clinical toxicology, repeated dose toxicity study in rat; assay type: in vivo; conditions: rat, in vivo; female rats, 4-Day repeat tox

>  <compound>
Cl.O=S(=O)(c1ccccc1)c1ccc2c(c1)OCCN2C1CCNCC1F (single isomer, unassigned; peak iii) [Example 1]

>  <NOAEL at 4 days>
300 mg/kg

$$$$

----------
molecular target: recombinant human 5-HT2A (Homo sapiens, UniProt P28223); test: Determination of 5-HT2A binding ([3H]-Ketanserin radioligand, membranes); conditions: human 5-HT2A membranes, [3H]-Ketanserin 1.75 nM
Sequence (P28223 whole entry): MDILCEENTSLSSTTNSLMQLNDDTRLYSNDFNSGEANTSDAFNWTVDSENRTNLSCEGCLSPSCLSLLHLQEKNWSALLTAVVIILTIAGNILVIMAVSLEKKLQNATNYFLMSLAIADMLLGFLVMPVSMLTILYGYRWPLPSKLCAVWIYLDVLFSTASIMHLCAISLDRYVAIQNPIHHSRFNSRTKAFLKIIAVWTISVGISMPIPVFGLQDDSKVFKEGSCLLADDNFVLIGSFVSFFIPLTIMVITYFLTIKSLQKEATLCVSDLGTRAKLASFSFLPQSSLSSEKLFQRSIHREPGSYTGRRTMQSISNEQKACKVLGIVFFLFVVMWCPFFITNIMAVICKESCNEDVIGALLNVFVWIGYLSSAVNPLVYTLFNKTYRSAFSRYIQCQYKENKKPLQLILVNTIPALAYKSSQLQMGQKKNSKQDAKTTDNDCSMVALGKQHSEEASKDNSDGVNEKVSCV
Doc: threshold 100 nM (exclusive). Items with Ki beneath it return 1.0; others return 0.0.

>  <compound>
O=S(=O)(c1cccc(F)c1)c1ccc2c(c1)OCCN2C1CCNCC1F (single isomer, unassigned; peak iii) [Example 7]

>  <studyTarget>
recombinant human 5-HT2A (Homo sapiens, UniProt P28223)

>  <labelClass>
1.0

$$$$
>  <compound>
O=S(=O)(c1ccccc1)c1ccc2c(c1)N(C1CCNCC1F)CCO2 (single isomer, unassigned; peak ii) [Example 15]

>  <studyTarget>
recombinant human 5-HT2A (Homo sapiens, UniProt P28223)

>  <labelClass>
0.0

$$$$
>  <compound>
O=S(=O)(c1ccccc1)c1ccc2c(c1)OCCN2C1CCNCC1F (single isomer, unassigned; peak i) [Example 2]

>  <studyTarget>
recombinant human 5-HT2A (Homo sapiens, UniProt P28223)

>  <labelClass>
0.0

$$$$
>  <compound>
O=S(=O)(c1ccccc1)c1ccc2c(c1)OCCN2C1CCNCC1F (single isomer, unassigned; peak iv) [Example 4]

>  <studyTarget>
recombinant human 5-HT2A (Homo sapiens, UniProt P28223)

>  <labelClass>
0.0

$$$$
>  <compound>
O=S(=O)(c1ccccc1)c1ccc2c(c1)OCCN2C1CCNCC1F (single isomer, unassigned; peak ii) [Example 3]

>  <studyTarget>
recombinant human 5-HT2A (Homo sapiens, UniProt P28223)

>  <labelClass>
0.0

$$$$
>  <compound>
O=S(=O)(c1cccc(F)c1)c1ccc2c(c1)OCCN2C1CCNCC1F (single isomer, unassigned; peak iv) [Example 8]

>  <studyTarget>
recombinant human 5-HT2A (Homo sapiens, UniProt P28223)

>  <labelClass>
0.0

$$$$
>  <compound>
O=S(=O)(c1ccccc1)c1ccc2c(c1)N(C1CCNCC1F)CCO2 (single isomer, unassigned; peak iv) [Example 17]

>  <studyTarget>
recombinant human 5-HT2A (Homo sapiens, UniProt P28223)

>  <labelClass>
0.0

$$$$
>  <compound>
Cl.O=S(=O)(c1ccccc1)c1ccc2c(c1)OCCN2C1CCNCC1F (single isomer, unassigned; peak iii)

>  <studyTarget>
recombinant human 5-HT2A (Homo sapiens, UniProt P28223)

>  <labelClass>
0.0

$$$$
>  <compound>
O=S(=O)(c1ccccc1)c1ccc2c(c1)OCCN2C1CCNCC1 [Comparator Example, reference compound]

>  <studyTarget>
recombinant human 5-HT2A (Homo sapiens, UniProt P28223)

>  <labelClass>
1.0

$$$$
